# measuredOn: T1, Wild-type SIRT6 (Sirtuin 6) (human, UniProt Q8N6T7 1-355)
# T1 construct: human SIRT6, full length (1-355aa), from pUC57-SIRT6 into pET28a; no tag cleavage is described; also called SIRT6 WT; source: E. coli ArcticExpress (DE3), purified (Ni Sepharose); not shown: His-tag, N-terminal, kept; Flag, C-terminal, kept
# assayDetails: BLI; Octet Red96, 96 well plates, PBS-T buffer (1X PBS, 0.05% tween-20); 120 µM biotinylated peptide attached to the sensor; analytes (SIRT6/SIRT6 mutants) from 0.18 to 5.5 µM; also run with cofactors (5 mM Mg2+, Zn2+, ATP, ADP, AMP, cAMP, NAD+)
# setupConditions: both partners purified
Where no end group is shown, it is not given here. The star is where a group is joined. Biotin = O=C1N[C@H]2[C@H](CS[C@H]2CCCCC(=O)*)N1; Myristoyl = CCCCCCCCCCCCCC(=O)*
metricName: Kd (µM)
Use µM as the unit, but write only the number.

I would be grateful if you could share the reported Kd for Biotin-KQTARK(Myristoyl)STGGKARRRRR (histone H3 N-terminal stretch around K9; five arginine residues added at the C-terminus so that the peptide is soluble in water; also called myristoylated peptide; source: synthetic peptide (Boster Biological Technology)) [B-H3K9^Myr-5R (biotin-KQTARK^MyrSTGGKARRRRR)] .
8.1
